Values from ChEMBL document CHEMBL6177988

# Test system: Non-structural protein 3/TRF2 G-quadruplex ribonucleic acid
# Procedure Text: Inhibition of N-terminal His-tagged SARS-CoV-2 Nsp3 SUD-NM domain (413-676 residues)/SARS-CoV-2 TRF2 G-quadruplex RNA incubated for 2 hrs by HTRF assay
# Type: protein assay, Severe acute respiratory syndrome coronavirus 2
Quantity: pIC50
Numbers only, as −log10 of the molar value.

> print(dat)
                           smiles.structure                              assay.target  test.result
1  CN(C)CCCCCNCc1ccc(-c2nc(-c3ccc(CNCCCCCN(C)C)cc3)c3ncn(-c4ccccc4)c3n2)cc1  Non-structural protein 3/TRF2 G-quadruplex ribonucleic acid         6.99
2  CN(C)CCCCNCc1ccc(-c2nc(-c3ccccc3)c3ccn(-c4ccc(CNCCCCN(C)C)cc4)c3n2)cc1  Non-structural protein 3/TRF2 G-quadruplex ribonucleic acid         7.01

From here, focus on the item given below.
query: Look up pIC50: CN1CCN(CCCCNCc2ccc(-c3nc(-c4ccc(CNCCCCN5CCN(C)CC5)cc4)c4ncn(-c5ccccc5)c4n3)cc2)CC1
result: 6.94

###

# Tested on: Non-structural protein 3/TRF2 G-quadruplex ribonucleic acid
# Procedure Text: Inhibition of N-terminal His-tagged SARS-CoV-2 Nsp3 SUD-NM domain (413-676 residues)/SARS-CoV-2 TRF2 G-quadruplex RNA incubated for 2 hrs by HTRF assay
# Format: protein assay, Severe acute respiratory syndrome coronavirus 2
Consider the following molecules; for each one, report its IC50.

> print(dat)
                           smiles.structure                              assay.target  quantity  test.result
1  CN(C)CCCCNCc1ccc(-c2ccc3ccc4ccc(-c5ccc(CNCCCCN(C)C)cc5)nc4c3n2)cc1  Non-structural protein 3/TRF2 G-quadruplex ribonucleic acid      IC50      31.2 nM

Provide the reported IC50 of each entry below, same order.
1. CN(C)CCCCCNCc1ccc(-c2cn(-c3ccccc3)c3ncnc(-c4ccc(CNCCCCCN(C)C)cc4)c23)cc1
2. CN(C)CCCNCc1ccc(-c2cn(-c3ccc(CNCCCN(C)C)cc3)c3ncnc(-c4ccc(CNCCCN(C)C)cc4)c23)cc1
3. CN(C)CCCCCNCc1ccc(-c2cc(-c3ccc(CNCCCCCN(C)C)cc3)c3ccn(-c4ccccc4)c3c2)cc1
4. CCN(CC)CCCCNCc1ccc(-c2cc3c(ccn3-c3ccccc3)c(-c3ccc(CNCCCCN(CC)CC)cc3)n2)cc1
5. CN(C)CCCCNCc1ccc(-c2cc3c(ccn3-c3ccccc3)c(-c3ccc(CNCCCCN(C)C)cc3)n2)cc1
6. O=c1c(O)cc([C@H]2Oc3cc(O)cc(O)c3C[C@H]2O)cc2c([C@H]3Oc4cc(O)cc(O)c4C[C@H]3O)cc(O)c(O)c12

result:
["140 nM", "46 nM", "90 nM", "446 nM", "87 nM", "> 500 nM"]

###

Consider the following compounds; for each one, report its CC50.
# Procedure Text: Cytotoxicity against human A549 cells harboring ACE2-CI33 assessed as cell viability by celltiter glo assay
# Assay type: toxicity, cell-based
Answers are plain numbers, in µM.

> print(dat)
                           smiles.structure  test.result
1  CN(C)CCCCCNCc1ccc(-c2cc(-c3ccc(CNCCCCCN(C)C)cc3)c3ccn(-c4ccccc4)c3c2)cc1         3.01

From here, focus on the item given below.
query: Look up CC50: CN(C)CCCCNCc1ccc(-c2cc(-c3ccc(CNCCCCN(C)C)cc3)c3ccn(-c4ccccc4)c3c2)cc1
result: 2.83

###

Consider the following compounds; for each one, report its IC50.
# System: Non-structural protein 3/TRF2 G-quadruplex ribonucleic acid
# Procedure Text: Inhibition of N-terminal His-tagged SARS-CoV-2 Nsp3 SUD-NM domain (413-676 residues)/SARS-CoV-2 TRF2 G-quadruplex RNA incubated for 2 hrs by HTRF assay
# Format: protein assay, Severe acute respiratory syndrome coronavirus 2
One number for each entry, in nM.

A selection of reference data follows.
> print(dat)
                           smiles.structure  quantity  test.result
1  CN(C)CCCNCc1ccc(-c2nc(-c3ccc(CNCCCN(C)C)cc3)c3ccn(-c4ccccc4)c3n2)cc1      IC50          137
2  CN(C)CCCCNCc1ccc(-c2nc(-c3ccc(CNCCCCN(C)C)cc3)c3c(ccn3-c3ccccc3)n2)cc1      IC50           90
3  CN(C)CCCCNCc1ccc(-c2nc(-c3ccc(CNCCCCN(C)C)cc3)c3ccn(-c4ccc(CNCCCCN(C)C)cc4)c3n2)cc1      IC50           48

Provide the reported IC50 of each entry below, same order.
1. CN1CCN(CCCCNCc2ccc(-c3cc(-c4ccc(CNCCCCN5CCN(C)CC5)cc4)c4ccn(-c5ccccc5)c4c3)cc2)CC1
2. CN1CCN(CCCCNCc2ccc(-c3ccc4ccc5ccc(-c6ccc(CNCCCCN7CCN(C)CC7)cc6)nc5c4n3)cc2)CC1

result:
1: 74; 2: 31.4

###

Consider the following compounds; for each one, report its IC50.
# Tested on: Non-structural protein 3/TRF2 G-quadruplex ribonucleic acid
# Procedure Text: Inhibition of N-terminal His-tagged SARS-CoV-2 Nsp3 SUD-NM domain (413-676 residues)/SARS-CoV-2 TRF2 G-quadruplex RNA incubated for 2 hrs by HTRF assay
# Type: protein assay, Severe acute respiratory syndrome coronavirus 2
Answers are plain numbers, in nM.

A selection of reference data follows.
> print(dat)
                           smiles.structure  quantity  units.symbol  test.result
1  CN(C)CCCCNCc1ccc(-c2cc(-c3ccc(CNCCCCN(C)C)cc3)c3ccn(-c4ccccc4)c3n2)cc1      IC50            nM          223
2  CN(C)CCCNCc1ccc(-c2nc(-c3ccc(CNCCCN(C)C)cc3)c3ccn(-c4ccc(CNCCCN(C)C)cc4)c3n2)cc1      IC50            nM           50
3  CN(C)CCCCNCc1ccc(-c2nc(-c3ccc(CNCCCCN(C)C)cc3)c3ncn(-c4ccccc4)c3n2)cc1      IC50            nM           79

query: API: value(readout= IC50, system= Non-structural protein 3/TRF2 G-quadruplex ribonucleic acid, query= CN(C)CCCCNCc1ccc(-c2cc(-c3ccc(CNCCCCN(C)C)cc3)c3ccn(-c4ccccc4)c3c2)cc1 )
result: 75

###

# System: Quadruplex DNA
# Procedure Text: Thermal stabilization of human telomeric G-quadruplex F21T DNA (FAM-5'-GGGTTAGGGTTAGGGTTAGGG-3'-TAMRA) assessed as change in half-width of melting temperature at 2 uM by FRET-melting assay
# Type: nucleic-acid assay
Quantity: deltaTm1/2 (°C)
Answers are plain numbers, in °C.

Smiles Structure	deltaTm1/2, °C
CN1CCN(CCCCNCc2ccc(-c3ccc4ccc5ccc(-c6ccc(CNCCCCN7CCN(C)CC7)cc6)nc5c4n3)cc2)CC1	24.1
CN(C)CCCCCNCc1ccc(-c2cc(-c3ccc(CNCCCCCN(C)C)cc3)c3ccn(-c4ccccc4)c3c2)cc1	30.9
O=C(O[C@@H]1Cc2c(O)cc(O)cc2O[C@@H]1c1cc(O)c(=O)c2c(O)c(O)cc([C@H]3Oc4cc(O)cc(O)c4C[C@H]3OC(=O)c3cc(O)c(O)c(O)c3)c2c1)c1cc(O)c(O)c(O)c1	0.9
CCN(CC)CCCCNCc1ccc(-c2cc3c(ccn3-c3ccccc3)c(-c3ccc(CNCCCCN(CC)CC)cc3)n2)cc1	28.7

Provide the reported deltaTm1/2 of each entry below, same order.
1. CN(C)CCCCCNCc1ccc(-c2nc(-c3ccc(CNCCCCCN(C)C)cc3)c3ncn(-c4ccccc4)c3n2)cc1
2. CN(C)CCCNCc1ccc(-c2nc(-c3ccc(CNCCCN(C)C)cc3)c3ccn(-c4ccc(CNCCCN(C)C)cc4)c3n2)cc1
3. CN(C)CCCCNCc1ccc(-c2cc3c(ccn3-c3ccccc3)c(-c3ccc(CNCCCCN(C)C)cc3)n2)cc1
4. CN(C)CCCNCc1ccc(-c2cn(-c3ccc(CNCCCN(C)C)cc3)c3ncnc(-c4ccc(CNCCCN(C)C)cc4)c23)cc1
5. CN1CCN(CCCCNCc2ccc(-c3cc(-c4ccc(CNCCCCN5CCN(C)CC5)cc4)c4ccn(-c5ccccc5)c4c3)cc2)CC1

result:
34
34.9
21
20.3
20.4

###

Consider the following molecules; for each one, report its pIC50.
# System: Non-structural protein 3/TRF2 G-quadruplex ribonucleic acid
# Procedure Text: Inhibition of N-terminal His-tagged SARS-CoV-2 Nsp3 SUD-NM domain (413-676 residues)/SARS-CoV-2 TRF2 G-quadruplex RNA incubated for 2 hrs by HTRF assay
# Assay type: protein assay, Severe acute respiratory syndrome coronavirus 2
pIC50: −log10 of the molar value.

A selection of reference data follows.
> print(dat)
                           smiles.structure  quantity  test.result
1  CN(C)CCCCCNCc1ccc(-c2cc3c(ccn3-c3ccccc3)c(-c3ccc(CNCCCCCN(C)C)cc3)n2)cc1     pIC50       < 6.70
2  CC(C)CCCCNCc1ccc(-c2cc(-c3ccc(CNCCCCC(C)C)cc3)c3ccn(-c4ccccc4)c3c2)cc1     pIC50       < 6.30

From here, focus on the item given below.
query: Look up pIC50: CN(C)CCCCNCc1ccc(-c2cn(-c3ccccc3)c3ncnc(-c4ccc(CNCCCCN(C)C)cc4)c23)cc1
result: < 6.30
